Biological target: JAK1 (Homo sapiens (Human), UniProt P23458)
Sequence (P23458 875-1153): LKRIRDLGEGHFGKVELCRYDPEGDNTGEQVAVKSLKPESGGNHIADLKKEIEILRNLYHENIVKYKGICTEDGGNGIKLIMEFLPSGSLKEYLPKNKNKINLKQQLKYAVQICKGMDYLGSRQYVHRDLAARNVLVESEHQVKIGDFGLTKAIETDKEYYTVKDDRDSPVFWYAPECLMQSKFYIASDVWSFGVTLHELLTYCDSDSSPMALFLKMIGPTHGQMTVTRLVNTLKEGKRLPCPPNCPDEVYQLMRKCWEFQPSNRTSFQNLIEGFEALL
Assay: Jak Biochemical HTRF Assay (JAK1)
Conditions: recombinant purified GST-tagged catalytic domain; HTRF; [ATP] 31.8 μM; [E] 1.405 nM
Protocol: Jak Biochemical HTRF Assay Protocol The ability of compounds to inhibit the activity of JAK1, JAK2, JAK3, and Tyk2 was measured using a recombinant purified GST-tagged catalytic domain for each enzyme (Invitrogen JAK1 #M4290, JAK2 #M4290, JAK3 #M4290, Tyk2 #M4290) in an HTRF format biochemical assay. […] Plates were shaken and centrifuged and then incubated 60 minutes at room temperature and then read on a Perkin Elmer Envision (Xex=337 nm, λem=665 and 615 nm, TRF delay time=20 μs). […]
pIC50: −log10 of the molar value.
test-readout: pIC50

// fetch pIC50 given entry CCC1(n2nc(Nc3ccc(C(=O)N4C[C@@H](C)O[C@@H](C)C4)c(C)c3)c3c(=O)[nH]ccc32)CCN(C(=O)OC(C)(C)C)CC1 [Example 3-4] 8.96

P. CCC1(n2nc(Nc3ccc(C(=O)N4CCOCC4(C)C)c(C)c3)c3c(=O)[nH]ccc32)CCN(C(=O)OC(C)(C)C)CC1 [Example 3-5]
Q. CCC1(n2nc(Nc3ccc(C4CCN(C)CC4)cc3)c3c(=O)[nH]ccc32)CCN(C(=O)OC(C)(C)C)CC1 [Example 2-4]
I'm curious, which of these has a smaller pIC50 number: P or Q ? Use the label to indicate which entry you chose. P

Values were extracted from patent US10072025B2.
